Target protein (sequence): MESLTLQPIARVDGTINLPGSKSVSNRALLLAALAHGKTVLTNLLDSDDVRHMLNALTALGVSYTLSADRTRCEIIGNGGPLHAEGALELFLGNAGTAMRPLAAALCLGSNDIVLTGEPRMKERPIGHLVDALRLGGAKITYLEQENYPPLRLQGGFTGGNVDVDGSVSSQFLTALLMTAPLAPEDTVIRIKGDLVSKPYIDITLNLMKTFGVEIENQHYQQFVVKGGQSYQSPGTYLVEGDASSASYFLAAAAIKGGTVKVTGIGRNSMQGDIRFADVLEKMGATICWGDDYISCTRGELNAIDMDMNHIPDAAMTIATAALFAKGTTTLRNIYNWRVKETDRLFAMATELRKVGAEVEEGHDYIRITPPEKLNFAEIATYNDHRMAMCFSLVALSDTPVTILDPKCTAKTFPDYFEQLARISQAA
Would you kindly list pKi for each of these compounds?
pKi (log units): -log10 of the concentration in mol/L.

// field: pKi; key: `O=C(O)C(=O)N[C@@H]1CC(C(=O)O)=C[C@@H](OC(C(=O)O)C(=O)O)[C@H]1O` ; value = 5.28

// field: pKi; key: `O=C(O)CO[C@@H]1CC(C(=O)O)=C[C@@H](OP(=O)(O)O)[C@H]1O` ; value = 5.82
